Tested on: NCI/ADR-RES
test protocol: NCI tumour cell line growth inhibition, 48 h
Activity calls are given as the source filed them. Rule as the data show it: active = GI50 up to about 1.1 µM and inactive = higher.
Result category, one only: active, inactive

These solved cases illustrate the format of a correct answer.
COc1ccc(-n2c(=O)c3nc(S)[nH]c3n(-c3ccc(OC)cc3)c2=S)cc1
inactive
CCOP(=O)(OCC)C(c1ccc(F)cc1)N(C(=O)NC(F)(F)F)c1cccc(C(F)(F)F)c1 (centres undefined)
inactive
Cc1ccc(S(=O)(=O)C2=C(C(C)C)N=NC2(C)C)cc1
inactive
C1=C2C3=[N+](CCCC3)CC2Cc2ccsc21 (centres undefined)
inactive

query: Per the assay record, what outcome was assigned to O=C1Nc2ccccc2NC1C1OC(c2ccccc2)=CC1=O (centres undefined) ?
result: inactive

query: Also, `COC(=O)[C@]12CSC[C@H]1C[C@H](c1ccc(N(C)C)cc1)N2` please.
result: inactive

query: Also, [N-]=[N+]=NC1(c2ccccc2)C(=O)Nc2ccccc2C1=O (centres undefined) please.
result: inactive

query: Also, COc1cc2cc(C(=O)N3CC(CCl)c4c3cc(N)c3ccccc43)[nH]c2c(OC)c1OC (centres undefined) please.
result: active

query: Also, O=C(O)CCC(N/N=N/c1ccc(-c2nc3ccccc3[nH]2)cc1)C(=O)O (centres undefined) please.
result: inactive

query: Also, `O=C(c1ccc(F)cc1)c1cccc(C(=O)c2ccc(F)cc2)n1` please.
result: inactive
